# credit: ChEMBL document CHEMBL3243981

System: P388
Assay: Antileukemic activity against mouse P388 cells allografted in mouse at 25 mg/kg administered daily as single dose relative to control
Format: functional
# reported T/C; entries follow
The answer is to be given in %; state only the numeric part.

A selection of reference data follows.
[Cl-].c1cc2c3c(c1)c1cc4c(cc1c[n+]3CC2)OCO4 [ANHYDROLYCORINIUM CHLORIDE]: 153
[Cl-].c1cc2c3c(c1)c1cc4c(cc1c[n+]3CCC2)OCO4: 120
COc1cc2c[n+](C)c3ccccc3c2cc1OC.[Cl-]: 121
[O-]c1cc2c3c(c1)c1cc4c(cc1c[n+]3CC2)OCO4 [UNGEREMINE]: 148

Would you kindly look at the next entry?
INPUT: Tell me the measured T/C of `Oc1cc2c3c(c1)c1cc4c(cc1c[n+]3CC2)OCO4.[Cl-]` , please.
OUTPUT: 164
